test_protocol: Cytotoxicity against human U373 cells assessed as growth inhibition after 72 hrs by MTT colorimetric assay
Assay type: functional, cell-based, U-373MG ATCC
run_conditions: U373 MG
recorded_metric: IC50

compound_structure_string	result
COc1ccc(-c2nnc(Nc3csc(-c4ccc(C)cc4)c3)s2)cc1OC	> 100 µM
COc1ccc(-c2cc(NC(=S)NNC(=O)c3ccc(C)cc3)cs2)cc1	> 100 µM

Note: attention shifts to another entry.
Qu. Write down IC50 measured for item COc1cc(-c2nnc(Nc3csc(-c4ccccc4)c3)s2)cc(OC)c1OC
Ans. > 100 µM

###

test_protocol: Cytotoxicity against human U373 cells assessed as growth inhibition after 72 hrs by MTT colorimetric assay
Assay type: functional, cell-based, U-373MG ATCC
run_conditions: U373 MG
recorded_metric: IC50

Worked cases, IC50 given:
compound_structure_string	IC50
O=C(NNC(=S)Nc1csc(-c2ccccc2)c1)c1ccc(O)cc1	> 100 µM
COc1ccc(-c2nnc(Nc3csc(-c4ccccc4)c3)s2)cc1OC	> 100 µM

Would you kindly look at the next entry?
Qu. Provide one value: measured IC50 of Cc1ccc(-c2nnc(Nc3csc(-c4ccccc4)c3)s2)cc1
Ans. > 100 µM
